Recorded TGI values for a group of compounds are listed next.
Tested on: M14 melanoma
Experiment: NCI tumour cell line growth inhibition, 48 h

Compound: Cc1cccc(C(C)(C)C)c1NC(=O)CC1C(=O)Nc2ccccc2S1(=O)=O (configuration not stated)
Experimental target: M14 melanoma
TGI: 27.8 µM
--
Compound: CC(=O)OC[C@@H](COC(=O)/C=C/c1ccc(O)cc1)OC1OC(CO)C(O)C(O)C1O (some centres not stated)
Experimental target: M14 melanoma
TGI: > 100 µM
--
Compound: Cc1nnc(-c2cccc(-c3ccc(C(=O)NCC4CC4)cc3)c2)o1
Experimental target: M14 melanoma
TGI: > 25 µM
--
Compound: NCC1OC(n2cnc3c(N)ncnc32)CC1O (configuration not stated)
Experimental target: M14 melanoma
TGI: > 100 µM
--
Compound: COc1ccc(-c2cc(=O)c3cc(OC)ccc3[nH]2)cc1
Experimental target: M14 melanoma
TGI: > 100 µM
--
Compound: COc1cc(N(C)C)c(OC)cc1/C=C\c1ccnc2ccccc12
Experimental target: M14 melanoma
TGI: > 10 µM
--
Compound: CC(C)N=C(N)NC#N
Experimental target: M14 melanoma
TGI: > 100 µM
--
Compound: CC(Nc1ccc(S(=O)(=O)N=C(N)N)cc1)c1c2ccccc2nc2ccccc12 (configuration not stated)
Experimental target: M14 melanoma
TGI: > 100 µM
--
Compound: CCC[CH2][Sn]1([CH2]CCC)[O]CC(CN(C)Cc2ccccc2)[O]1 (configuration not stated)
Experimental target: M14 melanoma
TGI: 7.76 µM
--
Compound: Nc1nnnn1CCO
Experimental target: M14 melanoma
TGI: > 100 µM
--
Compound: CN(/N=C/c1cccc2cccnc12)c1ccc(Cl)cc1[N+](=O)[O-]
Experimental target: M14 melanoma
TGI: > 100 µM
--
Compound: COc1cc(C2SCC(=O)N2c2ncc(C)s2)cc(OC)c1OC (configuration not stated)
Experimental target: M14 melanoma
TGI: > 50 µM
--
Compound: CC(C)[C@H](NC(=O)[C@H](N)Cc1ccc(N(CCCl)CCCl)cc1)C(=O)O
Experimental target: M14 melanoma
TGI: > 100 µM
--
Compound: C[As](C)SCC(COC(=O)C(Cl)c1ccccc1)OC(=O)C(Cl)c1ccccc1 (configuration not stated)
Experimental target: M14 melanoma
TGI: 15.7 µM
--
Compound: C=CCN(C(=O)OC(C)(C)C)[C@H](C)C(=O)N[C@@H](C)C(=O)OC
Experimental target: M14 melanoma
TGI: > 100 µM
--
Compound: N#CC(Cc1ccccc1)N(CCC1=CCCCC1)Cc1ccccc1 (configuration not stated)
Experimental target: M14 melanoma
TGI: > 100 µM
--
Compound: O=C(O)CCSCc1ccccc1
Experimental target: M14 melanoma
TGI: > 100 µM
--
Compound: CC(=O)c1c(C)[nH]c(-c2nc3ccc(N4CCN(C)CC4)cc3[nH]2)c1-c1ccc(N(C)C)cc1
Experimental target: M14 melanoma
TGI: 13.4 µM
--
Compound: COc1cc(-c2cc(=O)c3c(O)c(CC=C(C)C)c(O)cc3o2)ccc1O
Experimental target: M14 melanoma
TGI: 39.7 µM
--
Compound: O=C(c1ccccc1)C(CN1CCCCC1)c1ccccc1 (configuration not stated)
Experimental target: M14 melanoma
TGI: 2.63 µM
--
Compound: CCC(=C/[C@H](C)C/C=C/C(C)=C/[C@@H](C)C(=O)[C@@H](C)[C@H](O)[C@@H](C)CC)/C=C/[C@@H]1OC(=O)C=C[C@H]1C
Experimental target: M14 melanoma
TGI: 0.0103 µM
--
Compound: CCOc1ccc(N/C(=C(/C(Cl)=C(/Cl)N2CCCCC2)[N+](=O)[O-])n2nnc3ccccc32)cc1
Experimental target: M14 melanoma
TGI: 38.2 µM
